Molecular target: TYK2-JH2 (aa 575-869, in-house) protein (Homo sapiens, UniProt P29597)
Construct: TYK2-JH2 (aa 575-869, in-house) protein
Sequence (P29597 575-869): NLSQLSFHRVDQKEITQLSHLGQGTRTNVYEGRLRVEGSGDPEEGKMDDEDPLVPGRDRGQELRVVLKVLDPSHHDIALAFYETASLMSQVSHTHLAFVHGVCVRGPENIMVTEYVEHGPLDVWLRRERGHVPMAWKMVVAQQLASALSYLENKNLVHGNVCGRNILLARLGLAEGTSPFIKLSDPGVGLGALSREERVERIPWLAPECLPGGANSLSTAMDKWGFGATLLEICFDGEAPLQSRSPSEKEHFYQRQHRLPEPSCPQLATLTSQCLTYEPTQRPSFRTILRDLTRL
Experiment: TYK2-JH2 biochemical assay (HTRF, blocking of TYK2-JH2 protein with its probe)
Conditions: HTRF, 0.2 nM recombinant TYK2-JH2, Probe 1
measured property: IC50 (nM)

Worked set:
CNC(=O)c1nnc(NC(=O)C2CC2)cc1Nc1nc2ccc(N3C(=O)CC3c3ccccc3)cn2n1 (stereo not shown) [Example K1]; 0.5
CNC(=O)c1nnc(NC(=O)C2CC2)cc1Nc1nc2ccc(N3CCCC(N4CC(F)(F)C4)C3)cn2n1 (stereo not shown) [Example E13]; 0.047

(I) CNC(=O)c1nnc(NC(=O)C2CC2)cc1Nc1nc2ccc(N3CC(Oc4ccc(F)cc4F)C3)cn2n1 [Example E19]
(II) CNC(=O)c1nnc(NC(=O)C2CC2)cc1Nc1nc2ccc(N3CCC(C4CN(C)C4)CC3)cn2n1 [Example P1]
[in] Which numeric IC50 is bigger, that of I or that of II ? Select an item and report its label.
[out] I
(I: 0.14 nM, II: 0.039 nM)

(I) CNC(=O)c1nnc(NC(=O)C2CC2)cc1Nc1nc2ccc(N3CC(COC)C3)cn2n1 [Example E15]
(II) CNC(=O)c1nnc(NC(=O)C2CC2)cc1Nc1nc2ccc(N3CCC(N4CC(N(C)C)C4)CC3)cn2n1 [Example E21]
[in] Which numeric IC50 is bigger, that of I or that of II ? Select an item and report its label.
[out] II

Data provenance: patent US12606556B2
